Assay: Mouse PK study
Conditions: male, Swiss albino, mouse, plasma, ip, 75 mg/kg
measured_quantity: Tmax
Could you write the number and then its unit?

Name the recorded Tmax for Cc1ncsc1-c1ccc(CNC(=O)[C@@H]2C[C@@H](O)CN2C(=O)[C@@H](NC(=O)CNC(=O)c2ccc(F)c(-c3ccc(N4C[C@@H](C)N(C)[C@@H](C)C4)c(NC(=O)c4c[nH]c(=O)cc4C(F)(F)F)c3)c2)C(C)(C)C)cc1 [Compound 11] .
30 min
